test system: Candida albicans; assay: Antimicrobial activity against Candida albicans ATCC 90028 by alamar blue assay; format: functional, organism-based
Result Type: IC50

Please review the entries below; each comes with its answer.
>  <Line Notation>
Cc1ccc(Sc2cc3ccccc3[n+](CCCCCc3ccccc3)c2)cc1.[I-]

>  <Result Type>
IC50

>  <Val>
> 20 µg/mL

$$$$
>  <Line Notation>
Fc1ccccc1Sc1cc2ccccc2[n+](CCCCCc2ccccc2)c1.[I-]

>  <Result Type>
IC50

>  <Val>
> 20 µg/mL

$$$$

Next molecule, please.
// IC50 value for COc1ccccc1Sc1cc2ccccc2[n+](CCCCCc2ccccc2)c1.[I-] : > 20 µg/mL

###

system: Candida albicans; assay: Antimicrobial activity against Candida albicans ATCC 90028 by alamar blue assay; type: functional, organism-based
Result Type: IC50

The examples below pair each entry with its known result.
>  <Line Notation>
COc1ccc(Sc2cc3ccccc3[n+](CCCCCc3ccccc3)c2)cc1.[I-]

>  <Val>
> 20 µg/mL

$$$$
>  <Line Notation>
Cc1cccc(Sc2cc3ccccc3[n+](CCCCCc3ccccc3)c2)c1.[I-]

>  <Val>
> 20 µg/mL

$$$$

Below: the item to evaluate.
According to the records, this molecule Fc1cccc(Sc2cc3ccccc3[n+](CCCCCc3ccccc3)c2)c1.[I-] displays IC50 of > 20 µg/mL

###

test system: Nakaseomyces glabratus; assay: Antimicrobial activity against Candida glabrata ATCC 90030 by CLSI method; assay type: functional
Field: MFC. Provide a value for each of the compounds that follow.

>  <Line Notation>
Oc1ccc(Sc2cc3ccccc3[n+](CCCCCC3CCCCC3)c2)cc1.[I-]

>  <Measured Target>
Nakaseomyces glabratus

>  <MFC>
> 20 µg/mL

$$$$
>  <Line Notation>
Oc1cccc(Sc2cc3ccccc3[n+](CCCCCC3CCCCC3)c2)c1.[I-]

>  <Measured Target>
Nakaseomyces glabratus

>  <MFC>
> 20 µg/mL

$$$$

// moving on: another record for MFC
Noted for Oc1ccccc1Sc1cc2ccccc2[n+](CCCCCC2CCCCC2)c1.[I-] : its MFC reads > 20 µg/mL

###

experiment: Selectivity index, ratio of TC50 for african green monkey Vero cells to IC50 for Cryptococcus neoformans ATCC 90113; type: toxicity, cell-based; details: read-out: Selectivity Index
Kindly supply the reported selectivity ratio values for the records listed here.

Example molecules with recorded selectivity ratio:
>  <Line Notation>
FC(F)(F)c1ccc(Sc2cc3ccccc3[n+](CCCCCC3CCCCC3)c2)cc1.[I-]

>  <selectivity ratio>
> 33

$$$$
>  <Line Notation>
FC(F)(F)c1cccc(Sc2cc3ccccc3[n+](CCCCCC3CCCCC3)c2)c1.[I-]

>  <selectivity ratio>
> 25

$$$$
>  <Line Notation>
FC(F)(F)c1ccccc1Sc1cc2ccccc2[n+](CCCCCC2CCCCC2)c1.[I-]

>  <selectivity ratio>
> 33

$$$$
>  <Line Notation>
N#Cc1ccc(Sc2cc3ccccc3[n+](CCCCCC3CCCCC3)c2)cc1.[I-]

>  <selectivity ratio>
> 20

$$$$
>  <Line Notation>
Oc1cccc(Sc2cc3ccccc3[n+](CCCCCC3CCCCC3)c2)c1.[I-]

>  <selectivity ratio>
> 7.7

$$$$
>  <Line Notation>
N#Cc1cccc(Sc2cc3ccccc3[n+](CCCCCC3CCCCC3)c2)c1.[I-]

>  <selectivity ratio>
> 14

$$$$

Please turn your attention to the following entry.
Record summary for Oc1ccc(Sc2cc3ccccc3[n+](CCCCCC3CCCCC3)c2)cc1.[I-] : reported selectivity ratio = > 14
